The entries below come with measured TGI values attached.
System: MDA-N
Experiment: NCI tumour cell line growth inhibition, 48 h

Example molecules with recorded TGI:
C/C(=N/NC(=S)N1CCCCC1)c1ccccc1O: > 31.6 µM
COC(=O)c1cc(=O)[nH]c(=O)[nH]1: > 100 µM
O=C1C[C@@H](C(=O)OCc2ccccc2)NC(=O)C[C@@H](C(=O)OCc2ccccc2)NC(=O)C[C@@H](C(=O)OCc2ccccc2)N1: > 100 µM

// next entry
Which value of TGI has been reported for O=c1cnn(C2OC(CO)C(O)C2O)c(=S)[nH]1 (centres undefined) in the records?
> 100 µM

----------
Test system: TK-10 renal
Assay: NCI tumour cell line growth inhibition, 48 h
Attribute Measured: GI50

// known answers, use as guide
O=C(Nc1cccc(-n2cc(-c3ccncc3)c(-c3ccc(Cl)c(O)c3)n2)c1)Nc1cc(C(F)(F)F)cc(C(F)(F)F)c1: 843 nM
C=C(C)[C@@H]1CC[C@]2(C(=O)N[C@H](CO)Cc3ccccc3)CC[C@]3(C)[C@H](CC[C@@H]4[C@@]5(C)CCCNC(C)(C)[C@@H]5CC[C@]43C)[C@@H]12: 1610 nM
CC1=C(c2cccc(O)c2)[C@H](c2ccc(OCCN3CC(CF)C3)cc2)Oc2ccc(O)cc21: 12000 nM

Given the compound C#CC#CC#CC#CC#CC#CC#CC#CCC1OCC(COC(=O)O[C@@H](C(=O)O[C@H]2C[C@@]3(O)[C@@H](OC(=O)c4ccccc4)[C@@H]4[C@]5(OC(C)=O)CO[C@@H]5C[C@H](O)[C@@]4(C)C(=O)[C@H](OC(C)=O)C(=C2C)C3(C)C)[C@@H](NC(=O)c2ccccc2)c2ccccc2)O1 (stereo not given in full) , what is its reported GI50?
> 16300 nM

Please give the result for `NCCCC[C@@H]1NC(=O)[C@H]2CCCN2C(=O)[C@H](Cc2ccccc2)CNC(=O)[C@H](Cc2ccccc2)NC1=O` too.
> 37500 nM

Lookup C=C1C(O)C2C(=C(CC)C13CC3)C(=O)C(C)(C)C2OC (stereo not given)
> 100000 nM

How about this compound: `Cn1ncnc1[C@H]1c2n[nH]c(=O)c3cc(F)cc(c23)N[C@@H]1c1ccc(F)cc1`
> 100000 nM

# iterate: `COc1cc2nc(N3CCCC3)nc(NCc3ccccc3)c2cc1OC`
1900 nM

Try this compound too: `CN1CCN(C(=O)C(C)(C)c2ccc(C(=O)Nc3cn4cc(-c5ccncc5)ccc4n3)cc2)CC1`
484 nM

// query: `Cc1[nH]c2ccccc2c1CCCO`
> 100000 nM

----------
Test system: OVCAR-4 ovarian
Test: NCI tumour cell line growth inhibition, 48 h
Attribute Measured: TGI

The following compounds have reported results that may help.
CC(CN(C)C)/C(=N\Nc1ccccc1)c1ccccc1 (centres undefined): 19.8 µM
CC(=O)[CH-]C(=O)c1ccccc1.CC(=O)[CH-]C(=O)c1ccccc1.CC[O-].CC[O-].[Hf+4]: > 100 µM
NNC(=O)C1CCC(=O)N1S(=O)(=O)c1ccccc1 (centres undefined): > 100 µM
CCNCCCn1c2c(c3ccc(Cl)cc3c1=O)C(=O)c1cc(OC)cnc1-2: 2.4 µM
Cc1ccc(OCC2OC(n3cnc4c(Cl)nc(N)nc43)CC2Oc2ccc(C)cc2)cc1 (centres undefined): 61.3 µM

Any idea what its TGI is? The compound is CC1(C)CC(O)C(C)(C)[C@@H](O)C1 (some centres undefined)
> 100 µM

Queued: `COc1cc(OC)c2nc(C)c3c(c2c1)SCC3`
38.5 µM

What about this compound? `Cc1c(Cl)cccc1C(=O)Nc1nc2c(s1)CN(C(=O)c1ccc(C(F)(F)F)cc1)CC2`
> 50 µM

How about this compound: O=S(Nc1ccccc1)c1ccc(N2CCOCC2)cc1 (centres undefined)
> 100 µM
